Origin of the recorded values: PubChem BioAssay AID1745844

System: rodent lifetime carcinogenesis bioassay, tumor incidence TD50
method_notes: carcinogenic potency in animals, long-term in vivo studies, CPDB compilation (AID 1745844)
measurement_conditions: mouse; strain Charles River CD1; females; inhaled; site: lung; lesion: several types; types named in the paper; dosed 67 weeks; study length 74 weeks
parameter_measured: TD50

In: // Input: `C=CF` . Output its TD50 only.
Out: 54.6 mg/kg/day

* * *

Tested on: rodent lifetime carcinogenesis bioassay, tumor incidence TD50
method_notes: carcinogenic potency in animals, long-term in vivo studies, CPDB compilation (AID 1745844)
measurement_conditions: rat; strain Sprague-Dawley; females; in feed; site: mammary gland; lesion: adenocarcinoma; dosed 45 weeks; study length 52 weeks
parameter_measured: TD50

In: // Input: `NNc1nc(-c2ccc([N+](=O)[O-])cc2)cs1` . Output its TD50 only.
Out: 9.51 mg/kg/day
